Source of measurements: ChEMBL document CHEMBL1131391

test target: Muscarinic acetylcholine receptor M2 (Homo sapiens, UniProt P08172)
Sequence (P08172 whole entry): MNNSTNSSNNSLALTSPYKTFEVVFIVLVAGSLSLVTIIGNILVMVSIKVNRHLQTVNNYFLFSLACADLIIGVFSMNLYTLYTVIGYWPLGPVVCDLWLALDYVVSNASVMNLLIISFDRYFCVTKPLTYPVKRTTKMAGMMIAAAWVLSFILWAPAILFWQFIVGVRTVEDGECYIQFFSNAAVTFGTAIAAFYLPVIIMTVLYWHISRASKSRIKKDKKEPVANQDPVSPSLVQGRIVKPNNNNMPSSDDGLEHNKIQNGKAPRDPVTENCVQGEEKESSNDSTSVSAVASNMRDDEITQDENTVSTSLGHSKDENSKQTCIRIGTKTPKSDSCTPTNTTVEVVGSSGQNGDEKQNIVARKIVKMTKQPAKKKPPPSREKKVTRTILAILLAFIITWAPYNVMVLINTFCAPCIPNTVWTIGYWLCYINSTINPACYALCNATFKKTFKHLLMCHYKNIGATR
method notes: Evaluated for its binding affinity at human muscarinic receptor m2 by displacement of [3H]NMS binding using membranes from transfected chinese hamster ovarian cell
pIC50: −log10 of the molar value.
property label: pIC50

compound: CCCOC(=O)c1c(C)[nH]c2ccc3c(c12)CN1CCc2cc(OC)ccc2C1O3 (configuration not stated)
property label: pIC50
inequality operator: =
result value: 5.72

compound: CCOC(=O)c1c(C)[nH]c2ccc3c(c12)CN1CCc2cc(OC)c(OC)cc2C1O3 (configuration not stated)
property label: pIC50
inequality operator: =
result value: 5.03

compound: CCOC(=O)c1c(C)[nH]c2ccc3c(c12)CN1CCc2cc(OC)ccc2C1O3 (configuration not stated)
property label: pIC50
inequality operator: =
result value: 5.46

compound: CCOC(=O)c1c(C)[nH]c2ccc3c(c12)CN1CCc2cccc(C)c2C1O3 (configuration not stated)
property label: pIC50
inequality operator: >
result value: 6.00

compound: COC(=O)c1c(C)[nH]c2ccc3c(c12)CN1CCc2ccccc2C1O3 (configuration not stated)
property label: pIC50
inequality operator: =
result value: 5.33

compound: CCOC(=O)c1c(C)[nH]c2ccc3c(c12)CN1CCc2cc(OCC)ccc2C1O3 (configuration not stated)
property label: pIC50
inequality operator: =
result value: 5.59

compound: CCOC(=O)c1c[nH]c2ccc3c(c12)CN1CCc2cc(OC)ccc2C1O3 (configuration not stated)
property label: pIC50
inequality operator: =
result value: 5.34

compound: COc1ccc2c(c1)CCN1Cc3c(ccc4[nH]c(C)cc34)OC21 (configuration not stated)
property label: pIC50
inequality operator: =
result value: 5.94

compound: CCOC(=O)c1c[nH]c2ccc3c(c12)CN1CCc2cc(OC)c(OC)cc2C1O3 (configuration not stated)
property label: pIC50
inequality operator: =
result value: 5.11

compound: COc1cc2c(cc1OC)C1Oc3ccc4[nH]c(C)cc4c3CN1CC2 (configuration not stated)
property label: pIC50
inequality operator: =
result value: 4.83

compound: CC1OC(=O)[C@H]2C[C@H]3CCCC[C@@H]3[C@@H](/C=C/C3CCC[C@H](C)N3C)[C@@H]12 (single isomer, unassigned) [HIMBACINE]
property label: pIC50
inequality operator: =
result value: 7.76

compound: COC(=O)c1c(C)[nH]c2ccc3c(c12)CN1CCc2cc(OC)ccc2C1O3 (configuration not stated)
property label: pIC50
inequality operator: =
result value: 4.88

compound: COc1ccc2c(c1)CCN1Cc3c(ccc4[nH]c(C)c(C(=O)OC(C)C)c34)OC21 (configuration not stated)
property label: pIC50
inequality operator: =
result value: 5.58

compound: CCOC(=O)c1c(C)[nH]c2ccc3c(c12)CN1CCc2cc(C)ccc2C1O3 (configuration not stated)
property label: pIC50
inequality operator: =
result value: 5.02

compound: CCOC(=O)c1c(C)[nH]c2ccc3c(c12)CN1CCc2ccc(OC)cc2C1O3 (configuration not stated)
property label: pIC50
inequality operator: =
result value: 5.52

compound: CCOC(=O)c1c(C)[nH]c2ccc3c(c12)CN1CCc2ccccc2C1O3 (configuration not stated)
property label: pIC50
inequality operator: =
result value: 5.57

compound: CCOC(=O)c1c(C)[nH]c2ccc3c(c12)CN1CCc2cc(Oc4ccccc4)ccc2C1O3 (configuration not stated)
property label: pIC50
inequality operator: =
result value: 5.78
